- Tested on: Staphylococcus aureus
- testMethodNotes: Bactericidal activity against vancomycin-resistant Staphylococcus aureus VRSA4 clinical isolate after 24 hrs
- Type: functional
- measurementParameters: VRSA4, 24 h
measuredMetric: MBC (µg/mL)

1) CCCCCCCCCOc1ccc(-c2nc(C)c(/C(C)=N/NC(=N)N)s2)cc1; 16
2) C/C(=N\NC(=N)N)c1sc(-c2ccc(OC3CCCCCC3)cc2)nc1C; 4
3) CCCCCCOc1ccc(-c2nc(C)c(/C(C)=N/NC(=N)N)s2)cc1; 4
4) CCCCCCCCOc1ccc(-c2nc(C)c(/C(C)=N/NC(=N)N)s2)cc1; 4
5) C/C=C/COc1ccc(-c2nc(C)c(/C(C)=N/NC(=N)N)s2)cc1; 32
6) C/C(=N\NC(=N)N)c1sc(-c2ccc(OCCCC(C)C)cc2)nc1C; 16
7) CCCCCCCOc1ccc(-c2nc(C)c(/C(C)=N/NC(=N)N)s2)cc1; 2
8) C/C(=N\NC(=N)N)c1sc(-c2ccc(OCCC(C)C)cc2)nc1C; 32
9) C/C(=N\NC(=N)N)c1sc(-c2ccc(OCC(C)C)cc2)nc1C; 32
10) CC(=O)NC[C@H]1CN(c2ccc(N3CCOCC3)c(F)c2)C(=O)O1 [LINEZOLID]; 8
11) C/C(=N\NC(=N)N)c1sc(-c2ccc(OC3CCCC3)cc2)nc1C; 8

meta.source: ChEMBL document CHEMBL4002577
